- Measurement target: recombinant pentameric gH complex (Towne strain) (human cytomegalovirus, Towne strain) (UniProt P17176)
- Sequence (P17176 30-715, one chain of several): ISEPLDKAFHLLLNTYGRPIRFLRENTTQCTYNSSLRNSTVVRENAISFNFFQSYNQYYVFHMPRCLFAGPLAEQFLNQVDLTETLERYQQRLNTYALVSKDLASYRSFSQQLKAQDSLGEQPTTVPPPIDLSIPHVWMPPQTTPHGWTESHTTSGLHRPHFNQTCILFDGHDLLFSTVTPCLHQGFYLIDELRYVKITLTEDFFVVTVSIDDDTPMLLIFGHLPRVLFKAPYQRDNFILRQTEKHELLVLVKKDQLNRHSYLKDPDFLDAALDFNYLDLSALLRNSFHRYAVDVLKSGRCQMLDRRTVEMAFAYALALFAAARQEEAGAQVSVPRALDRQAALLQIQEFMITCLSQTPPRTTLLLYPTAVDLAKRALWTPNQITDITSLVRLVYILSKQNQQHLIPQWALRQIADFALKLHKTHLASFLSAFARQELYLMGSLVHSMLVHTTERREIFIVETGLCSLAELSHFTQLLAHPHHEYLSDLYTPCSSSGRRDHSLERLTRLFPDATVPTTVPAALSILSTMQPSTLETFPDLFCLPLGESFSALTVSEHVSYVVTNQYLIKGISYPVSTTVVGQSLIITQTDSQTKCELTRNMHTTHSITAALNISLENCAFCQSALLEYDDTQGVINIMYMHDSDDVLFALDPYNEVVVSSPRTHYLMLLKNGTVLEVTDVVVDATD
- Protocol text: BLI competition on His-pentamer; competitor (antibody 2): 70.7

- Binder: "1-32 (antibody, V domains shown) VH: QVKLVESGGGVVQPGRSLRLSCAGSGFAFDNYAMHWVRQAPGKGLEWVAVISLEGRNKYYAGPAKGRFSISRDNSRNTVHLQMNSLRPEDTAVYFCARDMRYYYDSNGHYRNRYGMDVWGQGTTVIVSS VL: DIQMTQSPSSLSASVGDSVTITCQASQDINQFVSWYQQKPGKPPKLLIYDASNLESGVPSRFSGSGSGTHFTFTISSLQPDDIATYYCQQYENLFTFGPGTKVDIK"
  Pair-wise inhibition (%): 87
- Binder: "3-7 (antibody, V domains shown) VH: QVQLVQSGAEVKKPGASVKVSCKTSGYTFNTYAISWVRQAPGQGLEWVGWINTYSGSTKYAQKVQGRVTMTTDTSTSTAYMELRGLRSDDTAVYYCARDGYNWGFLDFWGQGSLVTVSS VL: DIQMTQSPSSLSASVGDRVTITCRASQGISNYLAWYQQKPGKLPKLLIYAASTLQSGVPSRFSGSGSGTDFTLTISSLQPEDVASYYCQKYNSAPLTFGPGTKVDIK"
  Pair-wise inhibition (%): 38
- Binder: "3-16 (antibody, V domains shown) VH: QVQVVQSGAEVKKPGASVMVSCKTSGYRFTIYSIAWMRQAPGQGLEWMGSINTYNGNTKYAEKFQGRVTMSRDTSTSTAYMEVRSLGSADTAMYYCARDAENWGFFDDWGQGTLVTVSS VL: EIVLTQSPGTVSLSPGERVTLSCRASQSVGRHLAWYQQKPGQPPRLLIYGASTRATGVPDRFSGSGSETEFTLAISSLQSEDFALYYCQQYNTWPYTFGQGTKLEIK"
  Pair-wise inhibition (%): 2

The measured values listed here are drawn from patent US11230591.
